- testedTarget: hSTING(R232) (Homo sapiens, UniProt Q86WV6, H232R)
- Sequence (Q86WV6 whole entry H232R): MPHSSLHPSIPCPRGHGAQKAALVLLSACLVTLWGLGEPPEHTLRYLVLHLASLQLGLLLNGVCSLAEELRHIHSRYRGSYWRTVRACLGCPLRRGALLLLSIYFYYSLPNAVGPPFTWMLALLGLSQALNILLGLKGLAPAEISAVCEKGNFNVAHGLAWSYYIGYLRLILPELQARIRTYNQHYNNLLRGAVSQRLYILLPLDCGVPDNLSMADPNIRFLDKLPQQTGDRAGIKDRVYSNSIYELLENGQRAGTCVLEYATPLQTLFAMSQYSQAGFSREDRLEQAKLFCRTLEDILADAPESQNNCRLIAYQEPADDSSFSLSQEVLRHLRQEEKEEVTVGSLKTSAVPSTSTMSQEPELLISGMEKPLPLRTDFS
- protocolNotes: Luciferase reporter assay in HEK293T-hSTING-Luciferase cells, R232 (wild type) human STING
- Assay type: cell-based
- conditionLabel: 20 hr stimulation, read-out: R232 human activity (EC50 range)
Below, each of the molecules is paired with its reported EC50 value.

Cc1nn(C)c(CN2C(=O)N(C)C(C)c3ccc(C(=O)NCc4cc5cc(F)ccc5o4)cc32)c1F (centres unmarked) [Example 224] ... < 1000 nM

Lab note: next molecule to report on.
GET /value?item= COc1cccc(F)c1CNC(=O)c1ccc2c(c1)N(Cc1c(F)cccc1Cl)C(=O)N(C)[C@H]2C [Example 245] &field=EC50 returns 1000 to 10000 nM
